Origin of values: paper PMC9491549

Target: native Oplophorus luciferase (OpLase) (Oplophorus gracilirostris)
Construct: 19 kDa and 35 kDa subunits, 106 kDa; with Oplophorus-luciferin 2-monooxygenase non-catalytic subunit
Sequence (Q9GV45 28-196): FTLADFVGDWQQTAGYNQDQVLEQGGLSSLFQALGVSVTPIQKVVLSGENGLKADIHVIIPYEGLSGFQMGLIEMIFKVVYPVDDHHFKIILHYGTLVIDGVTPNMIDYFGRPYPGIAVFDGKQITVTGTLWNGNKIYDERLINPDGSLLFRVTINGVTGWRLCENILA
Sequence (Q9GV46 40-359 partner): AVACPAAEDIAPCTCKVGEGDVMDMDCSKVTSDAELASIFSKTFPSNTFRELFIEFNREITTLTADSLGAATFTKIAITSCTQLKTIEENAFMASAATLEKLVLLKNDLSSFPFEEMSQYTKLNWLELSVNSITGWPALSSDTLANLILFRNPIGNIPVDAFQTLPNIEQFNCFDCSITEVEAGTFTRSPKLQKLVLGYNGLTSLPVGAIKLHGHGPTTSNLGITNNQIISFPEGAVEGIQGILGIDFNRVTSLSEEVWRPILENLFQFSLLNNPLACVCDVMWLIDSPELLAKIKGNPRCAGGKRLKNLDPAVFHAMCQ
Assay: luminescence inhibition with coelenterazine
Type: biochemical
Settings: coelenterazine 1.2 × 10^−4 M (so in the source); 1 μg each in 200 μL), 30 mM Tris-HCl, 10 mM EDTA, 1 min preincubation; no inhibitor = 100
recorded.metric: Relative luminescence activity (Imax, %) / OpLase ^a

Answered examples (2):
# molecule, measurement.target, value.reported
records = [
    ("O=C1c2cc(-c3ccc(O)cc3)cc(Cc3ccccc3)c2C[C@@]1(CO)Cc1ccc(O)cc1 [(R)-HM-daCTZ]", "native Oplophorus luciferase (OpLase) (Oplophorus gracilirostris)", 33.5),
    ("O=C1c2cc(-c3ccc(O)cc3)cc(Cc3ccccc3)c2C[C@H]1Cc1ccc(O)cc1 [(R)-daCTZ]", "native Oplophorus luciferase (OpLase) (Oplophorus gracilirostris)", 5.1),
]

[I] O=C1c2cc(-c3ccc(O)cc3)cc(Cc3ccccc3)c2C[C@@H]1Cc1ccc(O)cc1 [(S)-daCTZ]
[II] O=C1c2cc(-c3ccc(O)cc3)cc(Cc3ccccc3)c2C[C@]1(CO)Cc1ccc(O)cc1 [(S)-HM-daCTZ]
Hi, I'm comparing two records. Which one has the lower Relative luminescence activity (Imax, %) / OpLase ^a, I or II ? Field: selected label. Fill in the label of the entry you choose. I
(I: 2.1%, II: 19.7%)
